target: human mesothelin (MSLN) (human) (UniProt Q13421); assay: BLI (Octet), bsAb in 1+1 Fab-scFv-Fc format
OUTCOME MEASURE: koff (s⁻¹)

BINDER	UNIT OF MEASUREMENT	RESULT NUMBER
XENP32570 (bispecific antibody, part only; not given: anti-CD3 scFv-Fc arm, constant regions, V domains shown, not shown: another chain or arm of the molecule; a dimerising Fc or GST; small tags and cut ends) VH: QVQLVQSGAEVKKPGASVKVSCKASGYTFTSYWMHWVRQAPGQGLEWMGMIHPNSGNTIYYEKFQGRVTMTVDKSISTAYMELSRLRSDDTAVYYCAIIITPVVPKFDYWGQGTLVTVSS VL: DIVMTQSPDSLAVSLGERATINCKASHSVGTSVAWYQQKPGQSPKLLIYWASTRHTGVPDRFTGSGSGTDFTLTISSLQAEDVAVYFCQQYSSYPLTFGAGTKLEIK	s⁻¹	7.35e-05
XENP32551 (bispecific antibody, part only; not given: anti-CD3 scFv-Fc arm, constant regions, V domains shown, not shown: another chain or arm of the molecule; a dimerising Fc or GST; small tags and cut ends) VH: QVQLVQSGAEVKKPGASVKVSCKASGYTFTSYYMHWVRQAPGQGLEWMGMIHPNSDNTIYYEKFQGRVTMTVDKSISTAYMELSRLRSDDTAVYYCAIIITPVVPKFDYWGQGTLVTVSS VL: DIVMTQSPDSLAVSLGERATINCKASHDVGTSVAWYQQKPGQSPKLLIYWASTRHTGVPDRFTGSGSGTDFTLTISSLQAEDVAVYFCQQYSSYPLTFGAGTKLEIK	s⁻¹	0.000773
XENP32558 (bispecific antibody, part only; not given: anti-CD3 scFv-Fc arm, constant regions, V domains shown, not shown: another chain or arm of the molecule; a dimerising Fc or GST; small tags and cut ends) VH: QVQLVQSGAEVKKPGASVKVSCKASGYTFTSYWMHWVRQAPGQGLEWMGMIHPNSDNTIYYEKFQGRVTMTVDKSISTAYMELSRLRSDDTAVYYCAIIITPVVPRFDYWGQGTLVTVSS VL: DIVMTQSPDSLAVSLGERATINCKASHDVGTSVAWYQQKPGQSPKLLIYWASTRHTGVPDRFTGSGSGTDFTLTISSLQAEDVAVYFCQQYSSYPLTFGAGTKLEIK	s⁻¹	0.000198
